In this section we review reported OD450 nm values for a set of binders.
Molecular target: monkey GPC3-His protein (monkey)
Test: ELISA, monkey GPC3-His coated; antibody 0.53 nM

{"binder": "hAb006LH3L1 (antibody, human IgG1, V domains shown) VH: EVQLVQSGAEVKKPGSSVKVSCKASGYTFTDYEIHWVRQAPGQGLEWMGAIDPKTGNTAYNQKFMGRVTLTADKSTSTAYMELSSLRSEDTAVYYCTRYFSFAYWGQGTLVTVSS VL: DIVMTQTPLSLPVTPGEPASISCRSSQTFVHSNGNTYLQWYLQKPGQSPQLLIYKVSNRFSGVPDRFSGSGSGTDFTLKISRVEAEDVGVYYCFQGSHVPYTFGQGTKLEIK", "OD450 nm": 2.1}
{"binder": "hAb003LH2L1 (antibody, human IgG1, V domains shown) VH: EVQLVQSGAEVKKPGSSVKVSCKASGYRFTDYEMHWVRQAPGQGLEWMGTIDPETGNTAYTQKFMDRVTITADKSTSTAYMELSSLRSEDTAVYYCTRGYSFTYWGQGTLVTVSS VL: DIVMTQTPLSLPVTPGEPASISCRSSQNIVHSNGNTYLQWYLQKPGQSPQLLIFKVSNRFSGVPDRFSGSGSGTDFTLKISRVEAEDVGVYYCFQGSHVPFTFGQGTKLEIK", "OD450 nm": 2.58}
